# Study Target: Ba/F3 cells EML4-ALK wt (variant 1) (Homo sapiens, UniProt Q9UM73)
# Construct: echinoderm microtubule-associated protein-like 4 (EML4) gene and the ALK tyrosine kinase domain; the other entry of the earlier key: EML4 (Q9HC35, Echinoderm microtubule-associated protein-like 4)
# Sequence (Q9UM73 with tags, fused parts or gaps): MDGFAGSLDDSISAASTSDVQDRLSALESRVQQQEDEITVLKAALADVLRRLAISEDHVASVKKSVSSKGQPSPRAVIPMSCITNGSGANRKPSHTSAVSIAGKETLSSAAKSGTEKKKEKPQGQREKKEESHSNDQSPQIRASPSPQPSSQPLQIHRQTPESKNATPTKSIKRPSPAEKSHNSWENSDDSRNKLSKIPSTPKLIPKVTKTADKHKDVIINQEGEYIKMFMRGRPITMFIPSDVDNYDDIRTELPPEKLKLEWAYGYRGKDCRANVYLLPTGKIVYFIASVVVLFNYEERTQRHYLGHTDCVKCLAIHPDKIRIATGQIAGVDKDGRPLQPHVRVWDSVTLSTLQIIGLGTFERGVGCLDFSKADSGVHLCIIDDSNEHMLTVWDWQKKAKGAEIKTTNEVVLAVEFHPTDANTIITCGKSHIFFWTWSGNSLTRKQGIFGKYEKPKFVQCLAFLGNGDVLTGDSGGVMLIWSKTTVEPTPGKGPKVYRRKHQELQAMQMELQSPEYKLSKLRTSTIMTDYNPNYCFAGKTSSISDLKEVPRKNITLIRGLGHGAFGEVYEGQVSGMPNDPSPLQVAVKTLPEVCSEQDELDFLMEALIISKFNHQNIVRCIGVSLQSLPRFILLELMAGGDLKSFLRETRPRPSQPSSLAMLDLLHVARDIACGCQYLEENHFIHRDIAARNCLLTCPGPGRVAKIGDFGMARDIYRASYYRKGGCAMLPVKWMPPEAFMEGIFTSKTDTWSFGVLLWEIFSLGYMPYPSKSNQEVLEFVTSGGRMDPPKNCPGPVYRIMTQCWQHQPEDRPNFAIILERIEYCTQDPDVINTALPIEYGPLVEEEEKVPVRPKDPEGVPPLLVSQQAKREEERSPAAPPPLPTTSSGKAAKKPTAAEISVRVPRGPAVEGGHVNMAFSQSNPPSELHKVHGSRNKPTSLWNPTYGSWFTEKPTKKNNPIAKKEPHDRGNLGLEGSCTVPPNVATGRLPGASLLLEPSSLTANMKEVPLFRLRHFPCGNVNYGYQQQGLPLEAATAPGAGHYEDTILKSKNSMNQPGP
# Procedure Summary: Ba/F3 cell proliferation assay, EML4-ALK wt (variant 1)
# Assay Context: 72 hours, CellTiter-Glo
pIC50: −log10 of the molar value.
Parameter: pIC50

Enquiry: Quickly give me recorded pIC50 for CCn1ncc2c1-c1cnc(N)c(c1)O[C@H](C)c1cc(F)ccc1-c1cc(OC)nn1C2
Return: 7.30 to 10.00

Enquiry: Quickly give me recorded pIC50 for CCn1ncc2c1-c1cnc(N)c(c1)O[C@H](C)c1cc(F)ccc1-c1nsnc1C2
Return: 7.30 to 10.00

Enquiry: Quickly give me recorded pIC50 for CCc1noc2c1-c1cnc(N)c(c1)O[C@H](C)c1cc(F)ccc1-c1cn(C)nc1C2
Return: 7.30 to 10.00

Enquiry: Quickly give me recorded pIC50 for CCn1ncc2c1-c1cnc(N)c(c1)O[C@H](C)c1cc(F)ccc1-n1nc(C)nc1C2
Return: 7.30 to 10.00

Enquiry: Quickly give me recorded pIC50 for C[C@H]1Oc2cc(cnc2N)-c2c(cnn2C2CCC2)Cc2ncnn2-c2ccc(F)cc21
Return: 7.30 to 10.00

Could you tell me pIC50 for each of these compounds? They are listed below.
1. CCn1nc(C)c2c1-c1cnc(N)c(c1)O[C@H](C)c1cc(F)ccc1-c1nn(C)nc1C2
2. C[C@H]1Oc2cc(cnc2N)-c2c(cnn2CC(F)F)Cc2ncc(F)cc2-c2ccc(F)cc21
3. C[C@H]1Oc2cc(cnc2N)-c2c(C#N)cnn2Cc2nccnc2-c2ccc(F)cc21

Return:
["7.30 to 10.00", "7.30 to 10.00", "7.30 to 10.00"]
